Listing: Kb of selected molecules
molecular target: δ opioid receptors (Mus musculus, UniProt P32300); construct: Bioassays Using Isolated Organ Preparations; from tissue; host or cells: mouse vas deferens (isolated organ); assay: Mouse vas deferens (MVD) bioassay, antagonism of electrically evoked contraction inhibition by δ-selective agonists; format: tissue-based; settings: MVD assay; δ agonist [D-Ala2]deltorphin I; means of 3-8 determinations; read-out: Ke (nM) against [D-Ala2]deltorphin I
Sequence (P32300 whole entry): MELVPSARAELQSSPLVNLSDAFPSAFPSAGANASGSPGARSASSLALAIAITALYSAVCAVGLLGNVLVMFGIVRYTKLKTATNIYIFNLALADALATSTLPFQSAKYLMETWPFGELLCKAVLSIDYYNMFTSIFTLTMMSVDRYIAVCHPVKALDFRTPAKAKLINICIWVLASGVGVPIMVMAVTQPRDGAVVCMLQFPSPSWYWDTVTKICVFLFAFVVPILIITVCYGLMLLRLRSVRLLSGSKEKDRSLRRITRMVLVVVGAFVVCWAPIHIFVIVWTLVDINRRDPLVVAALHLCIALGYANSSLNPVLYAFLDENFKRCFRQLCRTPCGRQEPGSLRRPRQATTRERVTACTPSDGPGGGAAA
Peptide text beside a SMILES is read from it.
MEASURE NAME: Kb (nM)

| MOLECULE | MEASURE NAME | UNIT ABBREV | RECORDED RESULT |
| --- | --- | --- | --- |
| Cc1cc(O)cc(C)c1C[C@H](N)C(=O)N1Cc2ccccc2C[C@H]1C(=O)N[C@@H](Cc1ccccc1)C(=O)N[C@@H](Cc1ccccc1)C(=O)O [HDmtTicPhePheOH, H-Dmt-Tic-Phe-Phe-OH] (HELM PEPTIDE1{[Cc1cc(O)cc(C)c1C[C@H](N)C(=O)[*:2]].[Tic].F.F}$$$$V2.0) | Kb | nM | 0.13 |
| N[C@@H](Cc1ccc(O)cc1)C(=O)N1Cc2ccccc2C[C@H]1C(=O)N[C@@H](Cc1ccccc1)C(=O)N[C@@H](Cc1ccccc1)C(=O)O [HTyrTicPhePheOH, H-Tyr-Tic-Phe-Phe-OH] (HELM PEPTIDE1{Y.[Tic].F.F}$$$$V2.0) | Kb | nM | 2.96 |
| CN(C[C@@H]1Cc2ccccc2CN1C(=O)[C@@H](N)Cc1ccc(O)cc1)[C@@H](Cc1ccccc1)C(=O)N[C@@H](Cc1ccccc1)C(=O)O [HTyrTic.psi.[CH2NCH3]PhePheOH, H-Tyr-Tic.PSI.[CH2 --NCH3 ]Phe-Phe-OH] | Kb | nM | 2.89 |
| Oc1ccc2c3c1O[C@H]1c4[nH]c5ccccc5c4C[C@@]4(O)[C@@H](C2)N(CC2CC2)CC[C@]314 [Naltrindole, naltrindole, reference compound] | Kb | nM | 0.636 |
| N[C@@H](Cc1ccc(O)cc1)C(=O)N1Cc2ccccc2C[C@H]1CN[C@@H](Cc1ccccc1)C(=O)O [HTyrTic-.psi.[CH2NH]PheOH, H-Tyr-Tic.PSI.[CH2 -NH]Phe-OH] | Kb | nM | 8.24 |

* * *

molecular target: δ opioid receptors (Mus musculus); construct: Bioassays Using Isolated Organ Preparations; from tissue; host or cells: mouse vas deferens (isolated organ); assay: Mouse vas deferens (MVD) bioassay, antagonism of electrically evoked contraction inhibition by δ-selective agonists; format: tissue-based; conditions: Ke (nM) against [D-Ala2]deltorphin I, MVD assay; δ agonist [D-Ala2]deltorphin I; means of 3-8 determinations
Peptide text beside a SMILES is read from it.
The following molecules are listed with their measured Kb values.

| MOLECULE | TARGET DESC | Kb |
| --- | --- | --- |
| N[C@@H](Cc1ccc(O)cc1)C(=O)N1Cc2ccccc2C[C@H]1C(=O)N[C@@H](Cc1ccccc1)C(=O)O [HTyrTicPheOH, H-Tyr-Tic-Phe-OH] (HELM PEPTIDE1{Y.[Tic].F}$$$$V2.0) | δ opioid receptors (Mus musculus) | 12.6 nM |
| N[C@@H](Cc1ccc(O)c(Cl)c1)C(=O)N1Cc2ccccc2C[C@H]1C(=O)N[C@@H](Cc1ccccc1)C(=O)N[C@@H](Cc1ccccc1)C(=O)O [HTyr(3-Cl)TicPhePheOH, H-Tyr(3-Cl)-Tic-Phe-Phe-OH] (HELM PEPTIDE1{[N[C@@H](Cc1ccc(O)c(Cl)c1)C(=O)[*:2]].[Tic].F.F}$$$$V2.0) | δ opioid receptors (Mus musculus) | 19.9 nM |
| N[C@@H](Cc1ccc(O)cc1)C(=O)N1Cc2ccccc2C[C@H]1C(=O)N[C@@H](Cc1c[nH]cn1)C(=O)N[C@@H](Cc1ccccc1)C(=O)O [HTyrTicHisPheOH, H-Tyr-Tic-His-Phe-OH] (HELM PEPTIDE1{Y.[Tic].H.F}$$$$V2.0) | δ opioid receptors (Mus musculus) | 18.7 nM |
